The measurements presented in this section are drawn from ChEMBL document CHEMBL6092142.

# method_summary: Metabolic stability in rat hepatocytes assessed as half life
# Format: ADME, cell-based, Hepatocyte
reported_metric: half-life (h)
The reply should be a number in h, with the unit left off.

I'd like to know its half-life. The molecule in question is "Cn1cc(-c2c(Cl)cnc3[nH]c(C4CCNCC4)cc23)cn1"
3.71

* * *

# method_summary: Selectivity index, ratio of IC50 for inhibition of CDK1 (unknown origin) to IC50 for inhibition of CDK9 (unknown origin)
reported_metric: Ratio IC50
Reply with the value as a number alone.

Solved entries (count: 4):
>>> value_reported("c1cc(-c2cnn(CC3CC3)c2)c2cc(C3CCNCC3)[nH]c2n1")
48.8
>>> value_reported("CN1CCC(c2cc3c(-c4cnn(CC5CC5)c4)c(Cl)cnc3[nH]2)CC1")
35.9
>>> value_reported("CC(C)N1CCC(c2cc3c(-c4cnn(CC5CC5)c4)c(Cl)cnc3[nH]2)CC1")
73.3
>>> value_reported("COCCN1CCC(c2cc3c(-c4cnn(CC5CC5)c4)c(Cl)cnc3[nH]2)CC1")
146

Endpoint output: Ratio IC50 of COCC(C)N1CCC(c2cc3c(-c4cnn(CC5CC5)c4)c(Cl)cnc3[nH]2)CC1 (configuration not stated) . Value?
107

Endpoint output: Ratio IC50 of "Clc1cnc2[nH]c(C3CCNCC3)cc2c1-c1cnn(CC2CC2)c1" . Value?
11.5

Requested read-out: Ratio IC50. Entry: "Cn1cc(-c2c(Cl)cnc3[nH]c(C4CCNCC4)cc23)cn1"
72.5

* * *

# method_summary: AUC (0 to 24 hrs) in CD-1 mouse at 2 mg/kg, iv
# Assay type: ADME, organism-based
# test_settings: CD-1, mouse, in vivo
reported_metric: AUC(0-t) (µM·h)
# output: bare number, implied unit µM·h

>>> value_reported("CC(=O)N[C@@H]1CCC[C@H](C(=O)Nc2cc(-c3cnn4c3CC(C)(C)C4)c(Cl)cn2)C1 [ZEMIRCICLIB]")
0.992

Now consider a different molecule.
// AUC(0-t) lookup, key: "Cn1cc(-c2c(Cl)cnc3[nH]c(C4CCNCC4)cc23)cn1"
0.916

* * *

# method_summary: Clearance in Sprague-Dawley rat at 4 mg/kg, iv
# Assay type: ADME, organism-based
# test_settings: in vivo
reported_metric: clearance (mL/min/kg)
API: value field is a number in mL/min/kg; no unit string.

Value lookup for clearance; key = "Cn1cc(-c2c(Cl)cnc3[nH]c(C4CCNCC4)cc23)cn1"
52

* * *

# method_summary: Metabolic stability in dog hepatocytes assessed as half life
# Assay type: ADME, cell-based, Canis lupus familiaris, Hepatocyte
reported_metric: half-life

So what does the record say about half-life for "Cn1cc(-c2c(Cl)cnc3[nH]c(C4CCNCC4)cc23)cn1" ?
> 4.66 h

* * *

# method_summary: Efflux ratio of permeability basolateral to apical side over apical to basolateral side in human Caco-2 cells
# Format: ADME, cell-based
reported_metric: efflux ratio
# output: bare number, no unit

Returns the measured efflux ratio for the input compound. Input: "Cn1cc(-c2c(Cl)cnc3[nH]c(C4CCNCC4)cc23)cn1"
17

* * *

# method_summary: Metabolic stability in human hepatocytes assessed as half life
# Type: ADME, cell-based, Hepatocyte
reported_metric: half-life

Any idea what its half-life is? The compound is "Cn1cc(-c2c(Cl)cnc3[nH]c(C4CCNCC4)cc23)cn1"
> 4.66 h

* * *

# method_summary: Clearance in Beagle dog at 1 mg/kg, iv
# Format: ADME, organism-based, Canis lupus familiaris
# test_settings: in vivo
reported_metric: clearance (mL/min/kg)
// return numeric value only (unit: mL/min/kg, not printed)

Query (molecule): "Cn1cc(-c2c(Cl)cnc3[nH]c(C4CCNCC4)cc23)cn1" ; field requested: clearance
29.1

* * *

# method_summary: Volume of distribution in Beagle dog at 1 mg/kg, iv
# Assay type: ADME, organism-based, Canis lupus familiaris
# test_settings: in vivo
reported_metric: Vd (L/kg)
Report only the number, with the unit L/kg understood.

Field request: Vd | item: "Cn1cc(-c2c(Cl)cnc3[nH]c(C4CCNCC4)cc23)cn1"
7.62

* * *

# tested_target: Cytochrome P450 2C9 (Homo sapiens)
# Sequence (P11712 whole entry): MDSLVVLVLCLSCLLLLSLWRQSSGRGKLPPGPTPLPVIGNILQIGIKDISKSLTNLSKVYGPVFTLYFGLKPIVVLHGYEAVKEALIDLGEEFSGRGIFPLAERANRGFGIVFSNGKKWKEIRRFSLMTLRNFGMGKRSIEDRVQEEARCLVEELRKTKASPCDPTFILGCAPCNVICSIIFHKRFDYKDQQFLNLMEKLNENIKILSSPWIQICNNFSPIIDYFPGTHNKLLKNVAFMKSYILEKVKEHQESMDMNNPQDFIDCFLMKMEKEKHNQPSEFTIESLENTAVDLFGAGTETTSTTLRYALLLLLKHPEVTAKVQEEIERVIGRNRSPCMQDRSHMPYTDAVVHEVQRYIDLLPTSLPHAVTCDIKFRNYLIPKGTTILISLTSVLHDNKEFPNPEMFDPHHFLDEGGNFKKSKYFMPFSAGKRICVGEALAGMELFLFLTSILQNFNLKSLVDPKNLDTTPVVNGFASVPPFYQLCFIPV
# method_summary: Inhibition of CYP2C9 (unknown origin)
# Type: ADME
pIC50: −log10 of the molar value.
reported_metric: pIC50

Give its pIC50 value. Item: "Cn1cc(-c2c(Cl)cnc3[nH]c(C4CCNCC4)cc23)cn1"
< 4.00

* * *

# Test system: MV4-11
# method_summary: Antiproliferative activity against human MV4-11 cells assessed as cell viability
# Type: functional, cell-based
Examples of compounds with documented IC50 follow.
Supply the numeric figure in nM, leaving out any unit text.

Please review the entries below; each comes with its answer.
>>> value_reported("Cn1cc(-c2c(Cl)cnc3[nH]c(C4CCNCC4)cc23)cn1")
53.4
>>> value_reported("Clc1cnc2[nH]c(C3CCNCC3)cc2c1-c1cnn(CC2CC2)c1")
14.7
>>> value_reported("COc1cc(F)ccc1-c1cc(Nc2cc(CS(C)(=N)=O)ccn2)ncc1F (centres undefined)")
92.4
>>> value_reported("CN1CCC(c2cc3c(-c4cnn(CC5CC5)c4)c(Cl)cnc3[nH]2)CC1")
35.7
>>> value_reported("Clc1cnc2[nH]c(C3CCNCC3)nc2c1-c1cnn(CC2CC2)c1")
464

Entry "c1cc(-c2cnn(CC3CC3)c2)c2cc(C3CCNCC3)[nH]c2n1" : reported IC50 = ?
252

What value of IC50 has been recorded for this entry: "COCCN1CCC(c2cc3c(-c4cnn(CC5CC5)c4)c(Cl)cnc3[nH]2)CC1"
63.8

Consider the compound COCC(C)N1CCC(c2cc3c(-c4cnn(CC5CC5)c4)c(Cl)cnc3[nH]2)CC1 (centres undefined) and give its measured IC50.
52

Requested read-out: IC50. Entry: "CC(C)N1CCC(c2cc3c(-c4cnn(CC5CC5)c4)c(Cl)cnc3[nH]2)CC1"
94.8

* * *

# method_summary: Volume of distribution in CD-1 mouse at 2 mg/kg, iv
# Type: ADME, organism-based
# test_settings: CD-1, mouse, in vivo, read-out: Vd
reported_metric: Vd (L/kg)
Your answer is read as L/kg, so omit the unit and give the number.

>>> value_reported("Cn1cc(-c2c(Cl)cnc3[nH]c(C4CCNCC4)cc23)cn1")
10.2

Bench note: what Vd did CC(=O)N[C@@H]1CCC[C@H](C(=O)Nc2cc(-c3cnn4c3CC(C)(C)C4)c(Cl)cn2)C1 [ZEMIRCICLIB] show?
0.52

* * *

A collection of compounds and their measured clearance
# method_summary: Clearance in CD-1 mouse at 2 mg/kg, iv
# Type: ADME, organism-based
# test_settings: in vivo
Your answer should be a plain number; it is taken to be in mL/min/kg.

Query: clearance; subject: CC(=O)N[C@@H]1CCC[C@H](C(=O)Nc2cc(-c3cnn4c3CC(C)(C)C4)c(Cl)cn2)C1 [ZEMIRCICLIB]
78.1

Sample "Cn1cc(-c2c(Cl)cnc3[nH]c(C4CCNCC4)cc23)cn1" — what was its clearance?
115

* * *

As shown below, each of these molecules has a reported Ratio IC50 value.
# method_summary: Selectivity index, ratio of IC50 for inhibition of CDK2 (unknown origin) to IC50 for inhibition of CDK9 (unknown origin)

>>> value_reported("COCC(C)N1CCC(c2cc3c(-c4cnn(CC5CC5)c4)c(Cl)cnc3[nH]2)CC1 (stereo not drawn)")
41
>>> value_reported("COCCN1CCC(c2cc3c(-c4cnn(CC5CC5)c4)c(Cl)cnc3[nH]2)CC1")
22.1
>>> value_reported("CC(C)N1CCC(c2cc3c(-c4cnn(CC5CC5)c4)c(Cl)cnc3[nH]2)CC1")
32.4
>>> value_reported("Clc1cnc2[nH]c(C3CCNCC3)cc2c1-c1cnn(CC2CC2)c1")
14.5
>>> value_reported("Cn1cc(-c2c(Cl)cnc3[nH]c(C4CCNCC4)cc23)cn1")
45.2

So what's the measured Ratio IC50 for this one? "Clc1cnc2[nH]c(C3CCNCC3)nc2c1-c1cnn(CC2CC2)c1"
35.5

# input molecule: "CN1CCC(c2cc3c(-c4cnn(CC5CC5)c4)c(Cl)cnc3[nH]2)CC1" ; wanted: its Ratio IC50
11.2

Ratio IC50 lookup needed for "c1cc(-c2cnn(CC3CC3)c2)c2cc(C3CCNCC3)[nH]c2n1" , thanks.
51.8

* * *

# method_summary: Permeability across apical to basolateral side in human Caco-2 cells
# Assay type: ADME, cell-based
# test_settings: read-out: permeability
reported_metric: Papp A→B (×10⁻⁶ cm/s)
Write the answer as a number in ×10⁻⁶ cm/s, unit excluded.

Which Papp A→B value belongs to "Cn1cc(-c2c(Cl)cnc3[nH]c(C4CCNCC4)cc23)cn1" ?
0.82

* * *

# method_summary: AUC (0 to 24 hrs) in Beagle dog at 1 mg/kg, iv
# Assay type: ADME, organism-based, Canis lupus familiaris
# test_settings: in vivo
reported_metric: AUC(0-t) (ng·h/mL)
Reply with just the number (in ng·h/mL).

Which value of AUC(0-t) has been reported for "Cn1cc(-c2c(Cl)cnc3[nH]c(C4CCNCC4)cc23)cn1" in the records?
568
